# Substrate: O=C(O)C(=O)c1ccc(O)cc1
# TEST DETAILS: initial rates of reductive amination, HPLC, Michaelis-Menten fit
# Format: biochemical, Corynebacterium glutamicum
# CONDITION SET: 0.5 mM NADPH, 10 mM NH4Cl, 50 mM Tris-HCl pH 8.0, 30 °C, HPGA 1-20 mM
MEASUREMENT LABEL: Km (mM)

PROTEIN	UNIT OF MEASUREMENT	OBSERVED VALUE
CgDAPDH^BC621 (Corynebacterium glutamicum ATCC 13032; D154G/H244N/Q150L/R195M/T169P) (protein, five-fold mutant BC621 in pET28a, recombinant in E. coli BL21(DE3), HisTrap purified) MTNIRVAIVGYGNLGRSVEKLIAKQPDMDLVGIFSRRATLDTKTPVFDVADVDKHADDVDVLFLCMGSATDIPEQAPKFAQFACTVDTYDNHRDIPRHRQVMNEAATAAGNVALVSTGWDPGMFSINRVYAAAVLAEHQQHTFWGPGLSLGHSGALRRIPGVQKAVQYPLPSEDALEKARRGEAGDLTGKQTHKMQCFVVADAADHERIENDIRTMPDYFVGYEVEVNFIDEATFDSEHTGMPNGGHVITTGDTGGFNHTVEYILKLDRNPDFTASSQIAFGRAAHRMKQQGQSGAFTVLEVAPYLLSPENLDDLIARDV	mM	8.17
CgDAPDH^BC621 (Corynebacterium glutamicum ATCC 13032; D120S/D154G/H244N/Q150L/R195M/T169P/W144S) (protein, five-fold mutant BC621 in pET28a, recombinant in E. coli BL21(DE3), HisTrap purified) MTNIRVAIVGYGNLGRSVEKLIAKQPDMDLVGIFSRRATLDTKTPVFDVADVDKHADDVDVLFLCMGSATDIPEQAPKFAQFACTVDTYDNHRDIPRHRQVMNEAATAAGNVALVSTGWSPGMFSINRVYAAAVLAEHQQHTFSGPGLSLGHSGALRRIPGVQKAVQYPLPSEDALEKARRGEAGDLTGKQTHKMQCFVVADAADHERIENDIRTMPDYFVGYEVEVNFIDEATFDSEHTGMPNGGHVITTGDTGGFNHTVEYILKLDRNPDFTASSQIAFGRAAHRMKQQGQSGAFTVLEVAPYLLSPENLDDLIARDV	mM	2.48
CgDAPDH^BC621 (Corynebacterium glutamicum ATCC 13032; D154G/H244N/Q150L/R195M/T169P/W144S) (protein, five-fold mutant BC621 in pET28a, recombinant in E. coli BL21(DE3), HisTrap purified) MTNIRVAIVGYGNLGRSVEKLIAKQPDMDLVGIFSRRATLDTKTPVFDVADVDKHADDVDVLFLCMGSATDIPEQAPKFAQFACTVDTYDNHRDIPRHRQVMNEAATAAGNVALVSTGWDPGMFSINRVYAAAVLAEHQQHTFSGPGLSLGHSGALRRIPGVQKAVQYPLPSEDALEKARRGEAGDLTGKQTHKMQCFVVADAADHERIENDIRTMPDYFVGYEVEVNFIDEATFDSEHTGMPNGGHVITTGDTGGFNHTVEYILKLDRNPDFTASSQIAFGRAAHRMKQQGQSGAFTVLEVAPYLLSPENLDDLIARDV	mM	8.07
CgDAPDH^BC621 (Corynebacterium glutamicum ATCC 13032; D154G/H244N/Q150L/R195M/T169I) (protein, five-fold mutant BC621 in pET28a, recombinant in E. coli BL21(DE3), HisTrap purified) MTNIRVAIVGYGNLGRSVEKLIAKQPDMDLVGIFSRRATLDTKTPVFDVADVDKHADDVDVLFLCMGSATDIPEQAPKFAQFACTVDTYDNHRDIPRHRQVMNEAATAAGNVALVSTGWDPGMFSINRVYAAAVLAEHQQHTFWGPGLSLGHSGALRRIPGVQKAVQYILPSEDALEKARRGEAGDLTGKQTHKMQCFVVADAADHERIENDIRTMPDYFVGYEVEVNFIDEATFDSEHTGMPNGGHVITTGDTGGFNHTVEYILKLDRNPDFTASSQIAFGRAAHRMKQQGQSGAFTVLEVAPYLLSPENLDDLIARDV	mM	20.37
CgDAPDH^BC621 (Corynebacterium glutamicum ATCC 13032; D120S/D154G/H244N/Q150L/R195M/T169P) (protein, five-fold mutant BC621 in pET28a, recombinant in E. coli BL21(DE3), HisTrap purified) MTNIRVAIVGYGNLGRSVEKLIAKQPDMDLVGIFSRRATLDTKTPVFDVADVDKHADDVDVLFLCMGSATDIPEQAPKFAQFACTVDTYDNHRDIPRHRQVMNEAATAAGNVALVSTGWSPGMFSINRVYAAAVLAEHQQHTFWGPGLSLGHSGALRRIPGVQKAVQYPLPSEDALEKARRGEAGDLTGKQTHKMQCFVVADAADHERIENDIRTMPDYFVGYEVEVNFIDEATFDSEHTGMPNGGHVITTGDTGGFNHTVEYILKLDRNPDFTASSQIAFGRAAHRMKQQGQSGAFTVLEVAPYLLSPENLDDLIARDV	mM	7.83
